test system: ATP; assay: switch fluorescence ratio, 500 uM ATP over buffer (Cy3 cluster intensity, sum of 5 cycles each) (fold (ratio)); higher = stronger signal-on switching upon ATP binding; sequences stand for … in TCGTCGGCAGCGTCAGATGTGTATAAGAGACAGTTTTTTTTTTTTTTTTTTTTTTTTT…TC; details: aptamer strand: ATP DNA aptamer (quencher-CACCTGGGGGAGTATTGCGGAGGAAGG + anchor), 100 nM annealed; ATP concentration: 500 uM;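 note: ATP exposure 15 min at 22 °C before imaging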
Reported Property: switch fluorescence ratio
Please reply with the number alone, leaving off any unit.

# switch fluorescence ratio measured on ATP for item TGGAAGGGTT = 0.994

# switch fluorescence ratio measured on ATP for item ACGGGGGCGC = 0.986

# switch fluorescence ratio measured on ATP for item TATGGTGTTT = 1.02

# switch fluorescence ratio measured on ATP for item GATCGAACGT = 1.02

# switch fluorescence ratio measured on ATP for item CGATAAGAAG = 1.01

# switch fluorescence ratio measured on ATP for item CGTAGGGTTT = 0.976

# switch fluorescence ratio measured on ATP for item TCATTGGTTT = 0.998

# switch fluorescence ratio measured on ATP for item GCTGAGGATG = 0.98

# switch fluorescence ratio measured on ATP for item TGGTGTTTTA = 0.994

# switch fluorescence ratio measured on ATP for item TGGTGGTCAG = 0.982

# switch fluorescence ratio measured on ATP for item ACGAGCGCGT = 1.02

# switch fluorescence ratio measured on ATP for item ATATTGGATT = 0.994

# switch fluorescence ratio measured on ATP for item GGATTTGTGG = 0.978

# switch fluorescence ratio measured on ATP for item AAGGCAGGTT = 1.02

---

tested on: ATP; assay: switch fluorescence ratio, 500 uM ATP over buffer (Cy3 cluster intensity, sum of 5 cycles each) (fold (ratio)); higher = stronger signal-on switching upon ATP binding; sequences stand for … in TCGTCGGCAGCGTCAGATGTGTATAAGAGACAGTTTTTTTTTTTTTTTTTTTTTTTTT…TC; conditions: aptamer strand: ATP DNA aptamer (quencher-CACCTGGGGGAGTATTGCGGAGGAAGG + anchor), 100 nM annealed; ATP concentration: 500 uM;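 note: ATP exposure 15 min at 22 °C before imaging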
Reported Property: switch fluorescence ratio
Please reply with the number alone, leaving off any unit.

Item: TTGGTACGGG | switch fluorescence ratio: 1.01

Item: CGTGGGGAGT | switch fluorescence ratio: 1

Item: AGAAGCGTGG | switch fluorescence ratio: 1.01

Item: ATGGGGGAGG | switch fluorescence ratio: 1.01

Item: GGTTAGTGTG | switch fluorescence ratio: 0.997

Item: GTGGGGCGGA | switch fluorescence ratio: 1.01

Item: GTATTCAGGT | switch fluorescence ratio: 0.992

Item: ATAATATAAC | switch fluorescence ratio: 1

Item: TTGTGGGGCC | switch fluorescence ratio: 1

Item: AAATATCTCT | switch fluorescence ratio: 0.982

Item: AAGCCTGAGG | switch fluorescence ratio: 1.01

Item: GTGGGAAAG | switch fluorescence ratio: 0.983

Item: AGCCCTCGTT | switch fluorescence ratio: 1

Item: CAAAATTTGC | switch fluorescence ratio: 0.984

Item: TGGTGGGGAT | switch fluorescence ratio: 0.985

Item: GTTGCGAGGT | switch fluorescence ratio: 0.987

Item: CATGTCGGTT | switch fluorescence ratio: 0.991

Item: AAGGGGTCTC | switch fluorescence ratio: 0.998

Item: CGGTGAAATG | switch fluorescence ratio: 0.975

Item: GGGCTATTAG | switch fluorescence ratio: 0.98

Item: TACATGAGTA | switch fluorescence ratio: 1.03

Item: TCGTATCGGG | switch fluorescence ratio: 1

Item: GGAGATTGCA | switch fluorescence ratio: 1.06

Item: GGAGGGTTTT | switch fluorescence ratio: 1.01

Item: GGGCGTTGGG | switch fluorescence ratio: 0.948

Item: AAGACACAGA | switch fluorescence ratio: 1.06

Item: TCTTGCTCGG | switch fluorescence ratio: 1.01

Item: CCCTTTAGGG | switch fluorescence ratio: 1.02

Item: TTTGTGCACC | switch fluorescence ratio: 0.994

Item: GGTTATCGAT | switch fluorescence ratio: 0.999

Item: TTGGAACGGG | switch fluorescence ratio: 1.02

Item: CTGTTTGAGA | switch fluorescence ratio: 1.02

Item: TTAAGTTCAT | switch fluorescence ratio: 0.981

Item: TTTTCCGTGG | switch fluorescence ratio: 1.01

Item: ATATTTCCTA | switch fluorescence ratio: 0.989

Item: ATGAAAACGT | switch fluorescence ratio: 1

Item: TATGGTGGTT | switch fluorescence ratio: 1.12

Item: TATTGGGGCG | switch fluorescence ratio: 0.982

Item: ATTTAAATTG | switch fluorescence ratio: 1.02

Item: GGGGGACGGG | switch fluorescence ratio: 1.02

Item: TTGTGTTTTT | switch fluorescence ratio: 0.995

Item: ATGGGGCTGT | switch fluorescence ratio: 0.979

Item: AAAATACATT | switch fluorescence ratio: 0.993

Item: TGTGGATAGG | switch fluorescence ratio: 1.03

Item: AGTTGTTTG | switch fluorescence ratio: 1

Item: TGCAGGTAGG | switch fluorescence ratio: 1.04

Item: CATTGGACGT | switch fluorescence ratio: 1.03

Item: TTTTATCGGT | switch fluorescence ratio: 0.979

Item: TTTGAGCTTT | switch fluorescence ratio: 1.02

Item: TAACCTATCT | switch fluorescence ratio: 1.04

Item: GTACTAAATT | switch fluorescence ratio: 1

Item: AAGCTTCTGT | switch fluorescence ratio: 1.02

Item: GGCCTAAAGG | switch fluorescence ratio: 1.01

Item: TTTCACGAAT | switch fluorescence ratio: 0.993

Item: AAGGTACCAG | switch fluorescence ratio: 1.03

Item: GACAGCGGGT | switch fluorescence ratio: 1.01

Item: AAATGTTTAA | switch fluorescence ratio: 1.01

Item: AGGAAGGTCG | switch fluorescence ratio: 0.969

Item: GGAGCGGGGT | switch fluorescence ratio: 1.03

Item: CTTTCAAGGT | switch fluorescence ratio: 1.01

Item: TTTACCGAAT | switch fluorescence ratio: 1.05

Item: TGTCGGTGTT | switch fluorescence ratio: 0.971

Item: GGGAATAATA | switch fluorescence ratio: 0.991

Item: AGACTCTCG | switch fluorescence ratio: 1.02

Item: CTCAGCCAGT | switch fluorescence ratio: 1.29

Item: AAGGGGTTAG | switch fluorescence ratio: 0.975

Item: TTGTCCTGCG | switch fluorescence ratio: 0.965

Item: TGGATAAGGT | switch fluorescence ratio: 1.05

Item: GATAGACTTA | switch fluorescence ratio: 0.949

Item: CAGAGTACGT | switch fluorescence ratio: 1.04

Item: GCGGTCAGCT | switch fluorescence ratio: 0.99

Item: ATATCGGATG | switch fluorescence ratio: 1.07

Item: GGCAGTGCGG | switch fluorescence ratio: 1

Item: CGGTCGGTGT | switch fluorescence ratio: 0.982

Item: TTAAAGGCTT | switch fluorescence ratio: 0.997

Item: TATATGATGA | switch fluorescence ratio: 0.996

Item: GGAGATAGGG | switch fluorescence ratio: 1.03

Item: ACACGGGAAG | switch fluorescence ratio: 1.02

Item: ACATGGATAA | switch fluorescence ratio: 1.01

Item: GGGTTAAGCT | switch fluorescence ratio: 0.989
